experimentDescription: chemical genetic growth profiling, strain panel (AID 1159580);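 note: tested at 20 µM; growth read once vehicle control cultures reached saturation at 30 °C; 1 = growth at the plate median or of vehicle wells; lower values mean less growth of the strain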
statedConditions: S. cerevisiae deletion strains, growth OD, locus YHR094C, strain hxt1
The whole screen tested about 5,500 compounds, of which about 2,000 (36%) were called active. About 18% were inconclusive and are not listed. Cut-off read from the data, not from the text of the source: active = normalized growth mostly below about 0.91 (no sharp cut-off); inconclusive = no clear call, values can overlap the other calls; inactive = mostly above about 0.92. This is one part of the list.
Parameter call: string, one of active, inactive

Consider the worked cases shown below.
[
  {
    "compound": "CC(C)(O)[C@@H]1[C@H]2OC(=O)[C@@H]1[C@]1(O)C[C@H]3O[C@]34C(=O)O[C@H]2[C@]14C",
    "className": "inactive"
  },
  {
    "compound": "CCC(C)C(=O)O[C@H]1[C@H](O)C2C(CN3CC(C)CCC3[C@@]2(C)O)C2C[C@]34O[C@]5(O)C(OC(=O)C(C)(O)C(C)O)CC[C@@]3(C)C5C(OC(C)=O)[C@@H](OC(C)=O)C4[C@@]21O (some centres not stated)",
    "className": "inactive"
  },
  {
    "compound": "CC1CC2C3CC(F)C4=CC(=O)C=CC4(C)C3(F)C(O)CC2(C)C1(O)C(=O)CO (configuration not stated)",
    "className": "inactive"
  },
  {
    "compound": "COc1cc2c(cc1OC)[C@@H]1C(=O)c3ccc4oc(C(C)C)cc4c3O[C@@H]1CO2",
    "className": "inactive"
  },
  {
    "compound": "NC(=O)c1ccc[n+]([C@@H]2O[C@H](COP(=O)([O-])OP(=O)(O)OC[C@H]3O[C@@H](n4cnc5c(N)ncnc54)[C@H](O)[C@@H]3O)[C@@H](O)[C@H]2O)c1",
    "className": "inactive"
  }
]

Query: Outcome? CC(C)CC(NC(=O)C(Cc1ccccc1)NC(=O)CNC(=O)CNC(=O)C(N)Cc1ccc(O)cc1)C(=O)O (configuration not stated)
Result: inactive

Query: Lab log entry: CCOC(=O)C(=O)C1(C(=O)OCC)Oc2cc(OC)cc(OC)c2C(=O)C1c1ccccc1 (configuration not stated) — outcome as called in the assay?
Result: inactive

Query: Outcome? COc1cc2c(cc1OC)[C@@H]1C(=O)c3ccc(OC)c(CC=C(C)C)c3O[C@@H]1CO2
Result: inactive

Query: Give the logged outcome of this assay for the following compound: CCOC(=O)C1(O)Oc2cc(OC)cc(OC)c2C(=O)C1c1ccccc1 (configuration not stated)
Result: inactive

Query: What is the recorded call for this compound in the test? COc1ccc2c(c1)O[C@@H]1COc3cc(OC)c(OC)cc3[C@@H]1C2=O
Result: active

Query: Outcome logged for Cc1cccc(C)c1OCC(C)N (configuration not stated) in this assay:
Result: inactive

Query: What did the test return for COc1cc2c(cc1OC)[C@@H]1C(=O)c3ccc4c(c3O[C@@H]1CO2)C=CC(C)(C)O4 ?
Result: inactive

Query: Assay outcome for C[C@]12CCC(=O)C=C1CCC1C2CC[C@@]2(C)C1CC[C@@H]2O (some centres not stated) : what was it?
Result: inactive

Query: What outcome does the record of this test show for COc1cc2c(cc1OC)C1C(=O)c3c(cc4c(c3O)C=CC(C)(C)O4)OC1CO2 (configuration not stated) ?
Result: inactive

Query: Dear all, I need the recorded test outcome for CC(Oc1ccccc1)C(=O)N[C@@H]1C(=O)N2[C@@H]1SC(C)(C)[C@@H]2C(=O)O (some centres not stated) , thank you.
Result: inactive

Query: Test call, this compound: COc1cc2c(cc1OC)C1C(=O)c3ccc4c(c3OC1CO2)CCC(C)(C)O4 (configuration not stated)
Result: inactive

Query: State the result this test recorded for COC1=CC(=O)C[C@@H](C)[C@]12Oc1c(Cl)c(OC)cc(OC)c1C2=O .
Result: inactive

----------
experimentDescription: chemical genetic growth profiling, strain panel (AID 1159580)
statedConditions: S. cerevisiae deletion strains, growth OD, locus YGR078C, strain PAC10
The whole screen tested about 5,500 compounds, of which about 2,000 (36%) were called active. Not shown: some 18% with an inconclusive outcome. Rule as the data show it: active = normalized growth mostly below about 0.91 (no sharp cut-off); inconclusive = no clear call, values can overlap the other calls; inactive = mostly above about 0.92. The list shows a part of the results.
Respond only with the outcome that fits, drawn from 1 = active, -1 = inactive

// below: answered compounds
[
  {
    "compound": "COc1ccc2c(c1)OCc1c-2oc2cc(OC)ccc12",
    "className": -1
  },
  {
    "compound": "COc1ccc2c(c1OC)C(=O)O[C@H]2[C@@H]1c2cc3c(cc2CCN1C)OCO3",
    "className": 1
  }
]

Query: Could you check what this test reported for CCOC(=O)C(=CNc1cccc(C#N)c1)C(=O)OCC ?
Result: -1

Query: Test call for this compound, please: CC(C)(C)C(=O)Nc1ccc(F)cc1
Result: -1

Query: // param item: CO[C@H]1[C@H](O)[C@H](O[C@H]2CC[C@]3(C)C4CC[C@]5(C)C(C6=CC(=O)OC6)CC[C@]5(O)C4CC[C@@H]3C2)O[C@@H](C)[C@@H]1O (stereo partly specified) ; yields the recorded call
Result: -1

Query: Outcome logged for COc1ccc(S(=O)(=O)Nc2ccccc2Oc2ccc(Cl)cc2Cl)cc1OC in this assay:
Result: -1

Query: So what was the verdict on CCOC(=O)C(=CNNC(=O)c1ccccc1-n1cccc1)C(=O)OCC in this test?
Result: -1

----------
Please respond with reported normalized growth for every item in the list.
experimentDescription: chemical genetic growth profiling, strain panel (AID 1159580);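 note: tested at 20 µM; growth read once vehicle control cultures reached saturation at 30 °C; 1 = growth at the plate median or of vehicle wells; lower values mean less growth of the strain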
statedConditions: S. cerevisiae deletion strains, growth OD, locus YMR078C, strain ctf18, active compounds read low
Among all 5,500 compounds or so, about 2,000 (36%) were called active. Not shown: some 18% with an inconclusive outcome. The list shows a part of the results.

[
  {
    "molecule": "CCN(CC)CCNC(=O)c1cc(Br)c(N)cc1OC",
    "testResult": "0.988 (inactive)"
  },
  {
    "molecule": "COc1ccc(OC)c(C(O)C(C)N)c1 (stereo unspecified)",
    "testResult": "0.987 (inactive)"
  },
  {
    "molecule": "COc1ccc2c(c1OC)C(=O)O[C@@H]2[C@H]1c2cc3c(cc2CCN1C)OCO3",
    "testResult": "1.03 (inactive)"
  },
  {
    "molecule": "CC1CC2C3CC(F)C4=CC(=O)C=CC4(C)C3(F)C(O)CC2(C)C1(O)C(=O)CO (stereo unspecified)",
    "testResult": "1.02 (inactive)"
  },
  {
    "molecule": "COc1ccc2cc([C@H](C)C(=O)O)ccc2c1",
    "testResult": "0.977 (inactive)"
  }
]

Answer for every listed entry: what is its normalized growth? The entries follow.
1. CC1(C)C(C=C(Cl)Cl)C1C(=O)OC(C#N)c1cccc(Oc2ccccc2)c1 (stereo unspecified)
2. COc1ccc2cc([C@H](C)CO)ccc2c1
3. COc1ccc2c(c1OC)C(=O)O[C@H]2[C@H]1c2cc3c(cc2CCN1C)OCO3
4. CC(C(=O)O)c1ccc(-c2ccccc2)c(F)c1 (stereo unspecified)

Result:
["0.98 (inactive)", "0.969 (inactive)", "1 (inactive)", "0.94 (inactive)"]

I need normalized growth for every entry listed below, if you could help.
1. CCN(CC)CCCC(C)Nc1ccnc2cc(Cl)ccc12 (stereo unspecified)
2. CC(C(=O)O)c1cccc(Oc2ccccc2)c1 (stereo unspecified)

Result:
1: 1.02 (inactive); 2: 0.953 (inactive)

----------
experimentDescription: chemical genetic growth profiling, strain panel (AID 1159580);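 note: tested at 20 µM; growth read once vehicle control cultures reached saturation at 30 °C; 1 = growth at the plate median or of vehicle wells; lower values mean less growth of the strain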
statedConditions: S. cerevisiae deletion strains, growth OD, locus YCR088W, strain abp1, active compounds read low
Among all 5,500 compounds or so, about 2,000 (36%) were called active. Another 18% or so got no clear call; they are omitted. The list shows a part of the results.
Provide the recorded normalized growth for the entries that follow.

[
  {
    "compound": "CN(C)C(=S)SSC(=S)N(C)C",
    "normalized growth": "0.0578 (active)"
  },
  {
    "compound": "CO[C@H]1[C@H](O)[C@H](O[C@H]2CC[C@]3(C)C4CC[C@]5(C)C(C6=CC(=O)OC6)CC[C@]5(O)C4CC[C@@H]3C2)O[C@@H](C)[C@@H]1O (stereo partly drawn)",
    "normalized growth": "1 (inactive)"
  }
]

Here is another compound to look at.
// sample CCOC(=O)CCC(=O)O[C@H]1[C@H](O[C@@H]2[C@@H](C)[C@H](O[C@H]3C[C@@](C)(OC)[C@@H](O)[C@H](C)O3)[C@@H](C)C(=O)O[C@H](CC)[C@@](C)(O)[C@H](O)[C@@H](C)C(=O)[C@H](C)C[C@@]2(C)O)O[C@H](C)C[C@@H]1N(C)C , its normalized growth was 1.01 (inactive)

----------
experimentDescription: chemical genetic growth profiling, strain panel (AID 1159580);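 note: tested at 20 µM; growth read once vehicle control cultures reached saturation at 30 °C; 1 = growth at the plate median or of vehicle wells; lower values mean less growth of the strain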
statedConditions: S. cerevisiae deletion strains, growth OD, locus YGR052W, strain FMP48, active compounds read low
In all, about 5,500 compounds went through this assay and about 2,000 (36%) were called active. Another 18% or so got no clear call; they are omitted. This is one part of the list.
Provide the reported normalized growth of each item.
Answers are plain numbers.

Below: 6 compounds and their reported normalized growth.
[
  {
    "compound": "O=C(CSc1nnnn1-c1ccccc1)c1ccccc1",
    "normalized growth": 0.587
  },
  {
    "compound": "COc1ccc(CN2CSC(=S)N(Cc3ccc(OC)cc3)C2)cc1",
    "normalized growth": 0.996
  },
  {
    "compound": "Cc1ccc(Sc2c(Sc3ccc(C)cc3)c(=O)c2=O)cc1",
    "normalized growth": 0.228
  },
  {
    "compound": "Cc1cc(Cl)ccc1NNC(=O)c1snnc1C",
    "normalized growth": 0.965
  },
  {
    "compound": "Cc1cc(C(=O)NNc2ccc(F)cc2F)no1",
    "normalized growth": 0.995
  },
  {
    "compound": "Cc1cc(Cl)ccc1NNC(=O)c1ccno1",
    "normalized growth": 0.996
  }
]

I need normalized growth for every entry listed below, if you could help.
1. Cc1c(Cc2ccc(F)cc2)c(=O)oc2cc(O)ccc12
2. Cc1ccc(/C=C2\CSc3ccc(F)cc3C2=O)cc1
3. Cc1nnsc1C(=O)Nc1cc(C(F)(F)F)cc(C(F)(F)F)c1
4. CC(C)(C)CN/C(C#N)=C(/C#N)NCc1cccc(Cl)c1

Result:
1: 1.02; 2: 0.91; 3: 1.02; 4: 0.947

Batch lookup, normalized growth per entry.
1. Cc1ccc(OCC2SCCN2C(=O)c2ccc(C(F)(F)F)cc2)c([N+](=O)[O-])c1 (configuration not stated)
2. O=C(NNc1ccccc1F)c1ccno1

Result:
1.12
1.01
